# System: 843782-103-R-J1-PDC complex spheroid viability
# assay-method-text: Anticancer human tumor 843782-103-R-J1-PDC patient-derived lung adenocarcinoma cell line growth inhibition [RAS]
# experimental-context: second compound 0.00316 µM; first compound 0.0316 µM; stronger effect = lower value
// reported viability, T/C for each item listed

| compound | viability, T/C / % |
| --- | --- |
| O=C(c1ccc(F)c(F)c1Nc1ccc(I)cc1F)N1CC(O)([C@@H]2CCCCN2)C1 + C=CC(=O)N1CCN(c2nc(OCC3CCCN3C)nc3c(F)c(-c4nc(N)cc(C)c4C(F)(F)F)c(Cl)cc23)C(C)C1 | 77.5 |
| C=CC(=O)Nc1cc(Nc2nccc(-c3cn(C)c4ccccc34)n2)c(OC)cc1N(C)CCN(C)C + C=CC(=O)N1CCN(c2nc(OCC3CCCN3C)nc3c(F)c(-c4nc(N)cc(C)c4C(F)(F)F)c(Cl)cc23)C(C)C1 | 80.1 |
| NC1c2ccccc2OC12CCN(c1cnc3c(N4CCCc5ncccc54)n[nH]c3n1)CC2 (stereo not given) + C=CC(=O)N1CCN(c2nc(OCC3CCCN3C)nc3c(F)c(-c4nc(N)cc(C)c4C(F)(F)F)c(Cl)cc23)C(C)C1 | 58.4 |
| Cc1nc(N2CCC3(CC2)COC(C)C3N)c(CO)nc1Sc1ccnc(N)c1Cl (stereo not given) + C=CC(=O)N1CCN(c2nc(OCC3CCCN3C)nc3c(F)c(-c4nc(N)cc(C)c4C(F)(F)F)c(Cl)cc23)C(C)C1 | 88.9 |
| CC1(O)CCCC1n1c(=O)c(C(F)F)cc2cnc(NC3CCN(S(C)(=O)=O)CC3)nc21 (stereo not given) + C=CC(=O)N1CCN(c2nc(OCC3CCCN3C)nc3c(F)c(-c4nc(N)cc(C)c4C(F)(F)F)c(Cl)cc23)C(C)C1 | 84.9 |

---

# Tested on: 843782-103-R-J1-PDC complex spheroid viability
# assay-method-text: Anticancer human tumor 843782-103-R-J1-PDC cell line growth inhibition [RAS];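 also: viability read after seven days of compound exposure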
# experimental-context: second compound 1 µM; first compound 1 µM; stronger effect = lower value
// reported viability, T/C for each item listed
readout-kind: viability, T/C (%)

| molecule | readout-kind | readout-units | observed-result |
| --- | --- | --- | --- |
| CCC(CC)c1cc(NC2CCC(N)C2)n2nccc2n1 (stereo not drawn) + C#Cc1c(F)ccc2cc(O)cc(-c3ncc4c(N5CC6CCC(C5)N6)nc(OCC56CCCN5CC(F)C6)nc4c3F)c12 | viability, T/C | % | 95.2 |
| C[C@@H](NC(=O)c1ncnc(N)c1Cl)c1ncc(C(=O)Nc2cc(C(F)(F)F)c(Cl)cn2)s1 + C=CC(=O)N1CCN(c2nc(OCC3CCCN3C)nc3c(F)c(-c4nc(N)cc(C)c4C(F)(F)F)c(Cl)cc23)C(C)C1 | viability, T/C | % | 85.3 |
| C=CC(=O)Nc1cc(Nc2nccc(-c3cn(C)c4ccccc34)n2)c(OC)cc1N(C)CCN(C)C + C=CC(=O)N1CCN(c2nc(OCC3CCCN3C)nc3c(F)c(-c4nc(N)cc(C)c4C(F)(F)F)c(Cl)cc23)C(C)C1 | viability, T/C | % | 32.5 |

---

// reported viability, T/C for each item listed
# Tested on: 843782-103-R-J1-PDC complex spheroid viability
# assay-method-text: Anticancer human tumor 843782-103-R-J1-PDC cell line growth inhibition [RAS];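 also: viability read after seven days of compound exposure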
# experimental-context: second compound 0.003 µM; first compound 0.0949 µM; stronger effect = lower value
readout-kind: viability, T/C (%)

| molecule | readout-kind | observed-result |
| --- | --- | --- |
| CC1(C)CCC(Nc2ncc(C(F)(F)F)c(-c3c[nH]c4c(P(C)(C)=O)c(C#N)ccc34)n2)CN1 (centres undefined) + CCn1c(-c2cc(N3CCN(C)CC3)cnc2C(C)OC)c2c3cc(ccc31)-c1csc(n1)CC(NC(=O)C1CC1C)C(=O)N1CCCC(N1)C(=O)OCC(C)(C)C2 | viability, T/C | 11.1 |
| CCc1c2c(nc3ccc(O)cc13)-c1cc3c(c(=O)n1C2)COC(=O)[C@]3(O)CC + CCn1c(-c2cc(N3CCN(C)CC3)cnc2C(C)OC)c2c3cc(ccc31)-c1csc(n1)CC(NC(=O)C1CC1C)C(=O)N1CCCC(N1)C(=O)OCC(C)(C)C2 | viability, T/C | 1.45 |
| CCc1c2c(nc3ccc(O)cc13)-c1cc3c(c(=O)n1C2)COC(=O)[C@]3(O)CC + CCn1c(-c2cccnc2C(C)OC)c2c3cc(ccc31)N1CCOC(CC(NC(=O)C(C(C)C)N(C)C(=O)C3(F)CCN(C(=O)C#CC(C)(C)N(C)C)CC3)C(=O)N3CCCC(N3)C(=O)OCC(C)(C)C2)C1 | viability, T/C | 1.9 |
| CC1(C)CCC(Nc2ncc(C(F)(F)F)c(-c3c[nH]c4c(P(C)(C)=O)c(C#N)ccc34)n2)CN1 (centres undefined) + CCn1c(-c2cccnc2C(C)OC)c2c3cc(ccc31)N1CCOC(CC(NC(=O)C(C(C)C)N(C)C(=O)C3(F)CCN(C(=O)C#CC(C)(C)N(C)C)CC3)C(=O)N3CCCC(N3)C(=O)OCC(C)(C)C2)C1 | viability, T/C | 17.9 |
